This collection of values is drawn from paper PMC10113271.

- system_tested: T1, KIX domain of CREB-binding protein (residues 586–672 of mouse CBP) (mouse, UniProt P45481 586-672)
- T1 construct: KIX domain, residues 586-672 of mouse CBP; 6xHis-tag and thrombin cleavage site at the N-terminus; source: E. coli BL21(DE3)pLysS, purified (Ni-NTA, gel filtration on Superdex 200 pg)
- protocol_text: ITC; 600 μM MLL solution titrated into the cell containing 45 µM KIX; 30 °C; 20 mM Tris–acetate pH 7.0, 50 mM NaCl; one-site binding model
- condition: both partners purified
pKd: −log10 of the molar value.
Recorded pKd, one value per entry.

binder	pKd
GNILPSDIMDFVLKNAPSMQALGESPESY (MLL TAD, residues 2842-2869 of human MLL, with the substitution; Tyr residue attached at the C-terminus for concentration determination by UV absorption; source: E. coli BL21(DE3), purified (Ni-NTA); not shown: His6, N-terminal, kept) [His-tag–GB1–MLL TAD T2857A]	5.58
GNILPSDIMDFVLKNRPSMQALGESPESY (MLL TAD, residues 2842-2869 of human MLL, with the substitution; Tyr residue attached at the C-terminus for concentration determination by UV absorption; source: E. coli BL21(DE3), purified (Ni-NTA); not shown: His6, N-terminal, kept) [His-tag–GB1–MLL TAD T2857R]	5.52
GNILPSDIMLFVLKNTPSMQALGESPESY (MLL TAD, residues 2842-2869 of human MLL, with the substitution; Tyr residue attached at the C-terminus for concentration determination by UV absorption; One of the four mutants used without His-tag–GB1 in ITC as well as in CD; source: E. coli BL21(DE3), purified (Ni-NTA, thrombin digestion on the column, anion exchange); not shown: His6, N-terminal, cleaved) [MLL TAD peptide D2851L without His-tag–GB1]	5.32
GNILPSDIMDFVLKNTPSMQALGESPESY (MLL TAD, residues 2842-2869 of human MLL; Tyr residue attached at the C-terminus for concentration determination by UV absorption; Used in ITC and immobilised in SPR; also called wild-type MLL TAD; WT; source: E. coli BL21(DE3), purified (Ni-NTA); not shown: His6, N-terminal, kept) [His-tag–GB1–MLL TAD (wild type)]	5.69
GNILPSDIMDFVLKNLPSMQALGESPESY (MLL TAD, residues 2842-2869 of human MLL, with the substitution; Tyr residue attached at the C-terminus for concentration determination by UV absorption; source: E. coli BL21(DE3), purified (Ni-NTA); not shown: His6, N-terminal, kept) [His-tag–GB1–MLL TAD T2857L]	5.72
GNILPSDIMDFVLRNLPSMQALGESPESY (MLL TAD, residues 2842-2869 of human MLL, with the substitutions; Tyr residue attached at the C-terminus for concentration determination by UV absorption; also called K2855R/T2857L double mutant; source: E. coli BL21(DE3), purified (Ni-NTA); not shown: His6, N-terminal, kept) [His-tag–GB1–MLL TAD K2855R/T2857L]	5.76
GNILPSDIMDFVLKNYPSMQALGESPESY (MLL TAD, residues 2842-2869 of human MLL, with the substitution; Tyr residue attached at the C-terminus for concentration determination by UV absorption; source: E. coli BL21(DE3), purified (Ni-NTA); not shown: His6, N-terminal, kept) [His-tag–GB1–MLL TAD T2857Y]	5.64
